Target: Proteasome subunit beta type-8 (Homo sapiens, UniProt P28062)
Sequence (P28062 whole entry): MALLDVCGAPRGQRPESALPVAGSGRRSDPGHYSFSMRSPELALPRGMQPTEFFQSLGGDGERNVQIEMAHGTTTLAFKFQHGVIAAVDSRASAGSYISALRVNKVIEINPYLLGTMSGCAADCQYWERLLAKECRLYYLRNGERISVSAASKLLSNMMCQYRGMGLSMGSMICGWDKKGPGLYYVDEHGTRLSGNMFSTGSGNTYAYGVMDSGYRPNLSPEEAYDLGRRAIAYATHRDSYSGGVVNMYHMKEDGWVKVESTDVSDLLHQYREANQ
Assay: Inhibition of immunoproteasome subunit LMP7 in human RPMI8226 cells assessed as reduction in cell viability incubated for 48 hrs by MTT assay
VALUE KIND: IC50
Please append the unit to your numeric answer.

Req: Can you share its IC50? I mean this compound: CC1=C(C(=O)N[C@H](C)C(=O)N[C@@H](Cc2c[nH]c3ccccc23)C(=O)N[C@@H](Cc2ccccc2)C(=O)[C@@]2(C)CO2)Cc2ccccc21
Resp: 3 µM

* * *

Biological target: Proteasome subunit beta type-8 (Homo sapiens)
Assay: Inhibition of immunoproteasome subunit LMP7 in human OPM1 cells assessed as reduction in cell viability incubated for 48 hrs by MTT assay
VALUE KIND: pIC50
Friendly reminder that pIC50 comes from taking -log10 of the concentration in mol/L.

Req: Please tell me: pIC50 of CC1=C(C(=O)N[C@H](C)C(=O)N[C@@H](Cc2c[nH]c3ccccc23)C(=O)N[C@@H](Cc2ccccc2)C(=O)[C@@]2(C)CO2)Cc2ccccc21 , system Proteasome subunit beta type-8 (Homo sapiens)?
Resp: 5.52
